# TESTED TARGET: CDK1/Cyclin B1 (Homo sapiens (Human))
# Sequence (P06493 whole entry): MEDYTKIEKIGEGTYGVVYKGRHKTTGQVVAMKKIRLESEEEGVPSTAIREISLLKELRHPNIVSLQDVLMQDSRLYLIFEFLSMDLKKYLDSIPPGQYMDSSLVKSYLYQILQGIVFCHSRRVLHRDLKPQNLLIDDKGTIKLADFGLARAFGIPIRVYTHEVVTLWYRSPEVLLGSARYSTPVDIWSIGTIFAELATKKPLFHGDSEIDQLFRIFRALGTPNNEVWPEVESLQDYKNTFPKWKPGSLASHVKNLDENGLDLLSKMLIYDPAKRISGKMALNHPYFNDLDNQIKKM
# Sequence (P14635 whole entry partner): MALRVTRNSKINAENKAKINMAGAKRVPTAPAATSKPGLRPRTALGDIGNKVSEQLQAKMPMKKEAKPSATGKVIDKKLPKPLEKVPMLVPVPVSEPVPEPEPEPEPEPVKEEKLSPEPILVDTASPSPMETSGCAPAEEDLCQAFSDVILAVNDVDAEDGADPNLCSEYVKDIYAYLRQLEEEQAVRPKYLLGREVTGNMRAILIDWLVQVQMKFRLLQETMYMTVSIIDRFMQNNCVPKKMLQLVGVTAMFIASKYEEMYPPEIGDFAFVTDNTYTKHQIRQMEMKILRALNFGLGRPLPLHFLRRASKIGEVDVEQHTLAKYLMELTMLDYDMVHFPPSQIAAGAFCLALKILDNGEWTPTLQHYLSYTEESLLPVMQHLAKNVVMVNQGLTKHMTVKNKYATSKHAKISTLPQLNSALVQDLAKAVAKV
# TEST DESCRIPTION: CDK1/Cyclin B1 kinase assay (Nanosyn, Caliper microfluidic)
# STUDY CONDITIONS: 12-point dose-response, singlicate, at Km for ATP; ATP 40 μM; 3 hr
API: label(entry) gives Yes if the entry's IC50 is strictly smaller than 0.03 µM; on equality or larger values it gives No.

Look over these answered cases.
[
  {
    "COMPOUND": "NS(=O)(=O)c1ccc(Nc2ncc3cc4n(c3n2)C2(CCCCC2)CC(=O)N4)cc1",
    "TESTED TARGET": "CDK1/Cyclin B1 (Homo sapiens (Human))",
    "CLASS ASSIGNMENT": "Yes"
  },
  {
    "COMPOUND": "NS(=O)(=O)c1ccc(Nc2ncc3cc4n(c3n2)C2(CCCCC2)C(=O)N[C@H]4CF)cc1",
    "TESTED TARGET": "CDK1/Cyclin B1 (Homo sapiens (Human))",
    "CLASS ASSIGNMENT": "Yes"
  },
  {
    "COMPOUND": "O=C(c1ccc(Nc2ncc3cc4n(c3n2)C2(CCCCC2)C(=O)NN4)cc1)N1CCOCC1",
    "TESTED TARGET": "CDK1/Cyclin B1 (Homo sapiens (Human))",
    "CLASS ASSIGNMENT": "No"
  },
  {
    "COMPOUND": "NC(=O)c1ccc(Nc2ncc3cc4n(c3n2)C2(CCCCC2)C(=O)NN4)cc1",
    "TESTED TARGET": "CDK1/Cyclin B1 (Homo sapiens (Human))",
    "CLASS ASSIGNMENT": "No"
  },
  {
    "COMPOUND": "CC1=NN(C)c2cc3cnc(Nc4ccc(S(N)(=O)=O)cc4)nc3n2C12CCCCC2",
    "TESTED TARGET": "CDK1/Cyclin B1 (Homo sapiens (Human))",
    "CLASS ASSIGNMENT": "Yes"
  }
]

Is the reported IC50 for NS(=O)(=O)c1ccc(Nc2ncc3cc4n(c3n2)C2(CCCCC2)C(=O)NC4O)cc1 (stereo not drawn) strictly below 0.03 µM? Yes

Is the reported IC50 for `CN1CCN(C(=O)c2ccc(Nc3ncc4cc5n(c4n3)C3(CCCCC3)C(=O)NN5)cc2)CC1` strictly below 0.03 µM? No

Is the reported IC50 for `NS(=O)(=O)c1ccc(Nc2ncc3cc4n(c3n2)C2(C=NN4)CCCCC2)cc1` strictly below 0.03 µM? No

Is the reported IC50 for `CN(C)C(=O)c1ccc(Nc2ncc3cc4n(c3n2)C2(CCCCC2)C(=O)NN4)cc1` strictly below 0.03 µM? No

Is the reported IC50 for CC1C(=O)N(C)c2cc3cnc(Nc4ccc(S(N)(=O)=O)cc4)nc3n2C12CCCCC2 (stereo not drawn) strictly below 0.03 µM? No
